I'd be grateful if you could share measured inhibition for these entries.
biological target: Lethal factor (Bacillus anthracis); assay: anthrax lethal factor cleavage blockers – biochemical, multiplex microsphere, MLPCN library, primary screen (AID 588501); details: multiplex microsphere protease cleavage assay, LF; at 10 µM; hits give high values; note: plate controls were buffer without enzyme for full effect and enzyme alone for no effect
Among all 360,000 compounds or so, about 420 (0.12%) were called active. Shown is part of a subset that was picked to be rich in actives.

INSERT INTO assay_data (molecule, observed_value) VALUES
  ('CCN(Cc1ccccc1)C(=O)CCS(=O)(=O)c1ccc2c(c1)oc(=O)n2C', '0.5% (inactive)');

// each listed molecule needs a value for inhibition
1. C=CC[C@H](CC(=O)OC(C)(C)C)C(=O)OC[C@H]1CCCN1C(=O)[C@H](CC=C)CC(=O)N(CCO)Cc1ccccc1
2. CCOC1=C2[C@H]([C@H]3C(=O)N(c4ccccc4)C(=O)[C@H]3C1)[C@@H](c1ccccc1)N(S(=O)(=O)c1ccc(C)cc1)[C@H]2c1ccccc1
3. O=S(=O)(NC1CCCC1)c1ccc(-n2cnnn2)cc1
4. CCCc1cc(=O)[nH]c(SCc2ccc(C#N)cc2)n1
5. CCc1ccccc1NC(=O)CSc1nnc(CCNC(=O)OC(C)(C)C)o1

Output:
["1.8% (inactive)", "4.4% (inactive)", "-2% (inactive)", "2.2% (inactive)", "-3.1% (inactive)"]
